Origin of values: patent US9169279B2

METHOD DESCRIPTION: Dog PK study: zoledronic acid in serum after IV or oral capsule dosing, enteric or non-enteric coated, with or without excess coformer (LC/MS/MS)
Assay type: in vivo, Beagle dogs
STUDY CONDITIONS: beagle, iv, 0.05 mg/kg, zoledronic acid in dog serum, Leg 1, IV 0.05 mg/kg, saline solution, Time 0.0333 hour, read-out: Average serum concentration of 5 dogs
TEST READOUT: concentration at 0.0333 hour (ng/mL)
Answer in ng/mL, number only, no unit symbol.

What value of concentration at 0.0333 hour has been recorded for this entry: O=P(O)(O)C(O)(Cn1ccnc1)P(=O)(O)O [Zoledronic acid]
413

----------
METHOD DESCRIPTION: Dog PK study: zoledronic acid in serum after IV or oral capsule dosing, enteric or non-enteric coated, with or without excess coformer (LC/MS/MS)
Assay type: in vivo, Beagle dogs
STUDY CONDITIONS: beagle, iv, 0.12 mg/kg, Leg 38, 0.12 mg/kg IV, saline solution, 1.25 h, read-out: Average serum concentration of 4 dogs
TEST READOUT: concentration at 1.25 h
Note: a bare number is incomplete; add the unit.

Fill in: concentration at 1.25 h of O=P(O)(O)C(O)(Cn1ccnc1)P(=O)(O)O is ___
121 ng/mL

----------
METHOD DESCRIPTION: Dog PK study: zoledronic acid in serum after IV or oral capsule dosing, enteric or non-enteric coated, with or without excess coformer (LC/MS/MS)
Format: in vivo, Beagle dogs
STUDY CONDITIONS: beagle, iv, 0.183 mg/kg, Leg 13, 0.183 mg/kg IV, saline solution, 25 min, read-out: Average serum concentration of 5 dogs
TEST READOUT: concentration at 25 min (ng/mL)
Write the value in ng/mL as a bare number.

So what's the measured concentration at 25 min for this one? O=P(O)(O)C(O)(Cn1ccnc1)P(=O)(O)O
629

----------
METHOD DESCRIPTION: Dog PK study: zoledronic acid in serum after IV or oral capsule dosing, enteric or non-enteric coated, with or without excess coformer (LC/MS/MS)
Assay type: in vivo, Beagle dogs
STUDY CONDITIONS: beagle, po, 56 mg, Leg 7, 56.0 mg, enteric coated capsule, PO, 10 min, read-out: Average serum concentration of 5 dogs
TEST READOUT: concentration at 10 min (ng/mL)
I only need the number, in ng/mL, no unit after it.

Which concentration at 10 min is reported for this compound? O=P(O)(O)C(O)(Cn1ccnc1)P(=O)(O)O [Zoledronic acid monohydrate]
0

----------
METHOD DESCRIPTION: Dog PK study: zoledronic acid in serum after IV or oral capsule dosing, enteric or non-enteric coated, with or without excess coformer (LC/MS/MS)
Assay type: in vivo, Beagle dogs
STUDY CONDITIONS: beagle, iv, 0.183 mg/kg, Leg 13, 0.183 mg/kg IV, saline solution, 20 min, read-out: Average serum concentration of 5 dogs
TEST READOUT: concentration at 20 min (ng/mL)
Answer in ng/mL, number only, no unit symbol.

Give its concentration at 20 min value. Item: O=P(O)(O)C(O)(Cn1ccnc1)P(=O)(O)O
746

----------
METHOD DESCRIPTION: Dog PK study: zoledronic acid in serum after IV or oral capsule dosing, enteric or non-enteric coated, with or without excess coformer (LC/MS/MS)
Assay type: in vivo, Beagle dogs
STUDY CONDITIONS: beagle, iv, 0.12 mg/kg, Leg 38, 0.12 mg/kg IV, saline solution, 0.5 h, read-out: Average serum concentration of 4 dogs
TEST READOUT: concentration at 0.5 h (ng/mL)
Answer in ng/mL, number only, no unit symbol.

Can you look up the measured concentration at 0.5 h of O=P(O)(O)C(O)(Cn1ccnc1)P(=O)(O)O [Zoledronic acid] for me?
358

----------
METHOD DESCRIPTION: Dog PK study: zoledronic acid in serum after IV or oral capsule dosing, enteric or non-enteric coated, with or without excess coformer (LC/MS/MS)
Assay type: in vivo, Beagle dogs
STUDY CONDITIONS: beagle, intravenous, 0.12 mg/kg, Leg 18, 15 min IV infusion 0.12 mg/kg, saline solution, Time 8 hour, read-out: Average serum concentration of 5 dogs
TEST READOUT: concentration at 8 h (ng/mL)
Quick reminder: number only, in ng/mL, skip the unit.

Any idea what its concentration at 8 h is? The compound is O=P(O)(O)C(O)(Cn1ccnc1)P(=O)(O)O [Zoledronic acid]
3.24

----------
METHOD DESCRIPTION: Dog PK study: zoledronic acid in serum after IV or oral capsule dosing, enteric or non-enteric coated, with or without excess coformer (LC/MS/MS)
Format: in vivo, Beagle dogs
STUDY CONDITIONS: beagle, iv, 0.183 mg/kg, Leg 13, 0.183 mg/kg IV, saline solution, 1.5 h, read-out: Average serum concentration of 5 dogs
TEST READOUT: concentration at 1.5 h (ng/mL)
Dear colleague, please return just the value in ng/mL, with no unit written.

Fill in: concentration at 1.5 h of O=P(O)(O)C(O)(Cn1ccnc1)P(=O)(O)O is ___
140

----------
METHOD DESCRIPTION: Dog PK study: zoledronic acid in serum after IV or oral capsule dosing, enteric or non-enteric coated, with or without excess coformer (LC/MS/MS)
Type: in vivo, Beagle dogs
STUDY CONDITIONS: beagle, iv, 0.12 mg/kg, Leg 38, 0.12 mg/kg IV, saline solution, 25 min, read-out: Average serum concentration of 4 dogs
TEST READOUT: concentration at 25 min (ng/mL)
Number in ng/mL, nothing else.

Sample O=P(O)(O)C(O)(Cn1ccnc1)P(=O)(O)O — what was its concentration at 25 min?
406

----------
METHOD DESCRIPTION: Dog PK study: zoledronic acid in serum after IV or oral capsule dosing, enteric or non-enteric coated, with or without excess coformer (LC/MS/MS)
Format: in vivo, Beagle dogs
STUDY CONDITIONS: beagle, iv, 0.12 mg/kg, Leg 38, 0.12 mg/kg IV, saline solution, 24 h, read-out: Average serum concentration of 4 dogs
TEST READOUT: concentration at 24 h (ng/mL)
State the answer as a number, implicitly in ng/mL.

May I ask what concentration at 24 h has been recorded for O=P(O)(O)C(O)(Cn1ccnc1)P(=O)(O)O [Zoledronic acid] ?
2.49

----------
METHOD DESCRIPTION: Dog PK study: zoledronic acid in serum after IV or oral capsule dosing, enteric or non-enteric coated, with or without excess coformer (LC/MS/MS)
Assay type: in vivo, Beagle dogs
STUDY CONDITIONS: beagle, Leg 37: 63.1 mg Zoledronic, DL-lysine, and water complex with 1965.7 mg DL-lysine monohydrate, PO gelatin capsules
TEST READOUT: bioavailability

Data request, read-out bioavailability, for O=P(O)(O)C(O)(Cn1ccnc1)P(=O)(O)O
> 8%

----------
METHOD DESCRIPTION: Dog PK study: zoledronic acid in serum after IV or oral capsule dosing, enteric or non-enteric coated, with or without excess coformer (LC/MS/MS)
Type: in vivo, Beagle dogs
STUDY CONDITIONS: beagle, po, Leg 19, 61.3 mg with 322.9 mg DL-lysine monohydrate, gelatin capsule, PO, 1 h, read-out: Average serum concentration of 5 dogs
TEST READOUT: concentration at 1 h
Give the value; after it, write the unit.

What value of measured concentration at 1 h is listed for O=P(O)(O)C(O)(Cn1ccnc1)P(=O)(O)O [Zoledronic acid] ?
384 ng/mL

----------
METHOD DESCRIPTION: Dog PK study: zoledronic acid in serum after IV or oral capsule dosing, enteric or non-enteric coated, with or without excess coformer (LC/MS/MS)
Assay type: in vivo, Beagle dogs
STUDY CONDITIONS: beagle, intravenous, 0.12 mg/kg, Leg 18, 15 min IV infusion 0.12 mg/kg, saline solution, Time 0.1667 hour, read-out: Average serum concentration of 5 dogs
TEST READOUT: concentration at 10 min (ng/mL)
Provide the reading as a plain figure in ng/mL.

// lookup concentration at 10 min for O=P(O)(O)C(O)(Cn1ccnc1)P(=O)(O)O [Zoledronic acid]
525

----------
METHOD DESCRIPTION: Dog PK study: zoledronic acid in serum after IV or oral capsule dosing, enteric or non-enteric coated, with or without excess coformer (LC/MS/MS)
Format: in vivo, Beagle dogs
STUDY CONDITIONS: beagle, intravenous, 0.12 mg/kg, Leg 18, 15 min IV infusion 0.12 mg/kg, saline solution, Time 0.75 hour, read-out: Average serum concentration of 5 dogs
TEST READOUT: concentration at 0.75 h (ng/mL)
A number alone suffices; assume ng/mL.

Quick check: concentration at 0.75 h of O=P(O)(O)C(O)(Cn1ccnc1)P(=O)(O)O ?
202
